Tested on: U2OS osteosarcoma
experimental-protocol: Anchorage Dependent Growth Monolayer Assay (ADGMA), MTS readout
Type: cell-based
details: Homo sapiens, 72 h; 3-day exposure, U2OS cells; read-out: IC50 values (average ± S.D.) U2OS
measurement-label: pIC50
Recall that pIC50 is obtained by taking minus log10 of the concentration measured in molar.

Q: Suppose we examine the compound CO[C@@H](C(=O)N[C@H]1CC[C@@H](OC(=O)OCC(C)(C)C)CNC1=O)[C@H](O)[C@@H](O)[C@H](O)/C=C/C(C)(C)C [Ex. 5] ; what pIC50 value has been reported?
A: 6.21

Q: What value of pIC50 has been recorded for this entry: CO[C@@H](C(=O)N[C@H]1CC[C@@H](OC(=O)OC2CCCCC2)CNC1=O)[C@H](O)[C@@H](O)[C@H](O)/C=C/C(C)(C)C [Ex. 6]
A: 6.11

Q: I'd like to know its pIC50. The compound in question is CO[C@@H](C(=O)N[C@H]1CC[C@@H](OC(=O)OCc2ccccc2)CNC1=O)[C@H](O)[C@@H](O)[C@H](O)/C=C/C(C)(C)C [Ex. 4]
A: 6.60

Q: Can you share its pIC50? I mean this compound: CO[C@@H](C(=O)N[C@H]1CC[C@@H](OC(=O)OCCc2ccccc2)CNC1=O)[C@H](O)[C@@H](O)[C@H](O)/C=C/C(C)(C)C [Ex. 3]
A: 6.51

Q: # input compound: COc1cccc2c1C(=O)c1c(O)c3c(c(O)c1C2=O)C[C@@](O)(C(=O)CO)C[C@@H]3O[C@H]1C[C@H](N)[C@H](O)[C@H](C)O1 [doxorubicin, reference compound] ; wanted: its pIC50
A: 6.89
